- Tested on: MDA-MB-231 breast
- EXPERIMENT SUMMARY: NCI-60 one-dose screen, 48 h
- ASSAY CONTEXT: 10 µM unless noted
About 83,000 compounds went through this panel and 20% of them were active in at least one assay; those are over-represented in the sample as a whole. The source made the active and inactive calls. The calls were made as follows: active = growth percent below 10; inactive = the rest.
Returns: one label drawn from active, inactive

Some solved cases for reference:
{"COMPOUND": "COc1nc2ccccc2cc1/C=C1/C=C(c2ccccc2)NC1=O", "LABEL VALUE": "inactive"}
{"COMPOUND": "OC1CSSC1Cn1cnc2c(Nc3ccc(F)c(Cl)c3)ncnc21 (centres undefined)", "LABEL VALUE": "inactive"}
{"COMPOUND": "C[C@H]1c2ccccc2CN1CCCOc1cc2c(cc1OCC1CC1)C1(CCCC1)C(N)=N2", "LABEL VALUE": "inactive"}

What is the recorded call for this compound in the test? "CCN(CC)CCOc1ccc(/C(=C(\C)Cc2ccc(OC)cc2)c2ccc(O)cc2)cc1"
inactive

What is the recorded call for this compound in the test? "CC(C)n1nc(-c2ccc3oc(N)nc3c2)c2c(N)ncnc21"
active

What is the recorded call for this compound in the test? "COc1cc(OC)cc(C(=O)Nc2cnc(Nc3ccc(N4CCOCC4)nc3)nc2Oc2ccc(C(F)(F)F)cc2)c1"
inactive

----------
- Test system: IGROV1 ovarian
- EXPERIMENT SUMMARY: NCI-60 one-dose screen, 48 h (100 = growth as untreated, 0 = no growth, -100 = all killed)
- ASSAY CONTEXT: 10 µM unless noted
This is part of a sample that, as a whole, favours compounds with a hit. Of some 83,000 tested, about 20% had one in any assay. Activity calls are given as the source filed them. The calls were made as follows: active = growth percent below 10; inactive = the rest.
MEASURED PARAMETER: growth

{"MOLECULE": "Cc1ccc2c(c1)CC(O)CC1C(=O)N(CCO)CC(=O)N21 (stereo not given)", "growth": "112% (inactive)"}
{"MOLECULE": "N#CSCc1cc(Cl)c(CSC#N)cc1Cl", "growth": "84.7% (inactive)"}
{"MOLECULE": "CC1(C)C2=C(C(=O)N1Cc1ccccc1)C(c1ccco1)N(C(=O)C1CCC1)CCN2 (stereo not given)", "growth": "103% (inactive)"}
{"MOLECULE": "COC(=O)c1ccc(-n2cc(CCCOS(=O)(=O)c3ccc(F)cc3)nn2)cc1", "growth": "102% (inactive)"}
{"MOLECULE": "COC(=O)c1nc(-c2ccccc2)oc1S(=O)(=O)NCC(c1ccc(Cl)cc1)N1CCCCC1 (stereo not given)", "growth": "56.5% (inactive)"}

Bench note: what growth did N#C/C(=C\c1cccc2cnccc12)N1N=NC2C=CC=CC21 (stereo not given) show?
27.9% (inactive)

Bench note: what growth did "C=CCn1c(SCC(=O)Nc2ccc(C(=O)/C=C/c3ccc(Cl)cc3)cc2)nnc1-c1ccccc1" show?
89.1% (inactive)

Bench note: what growth did "c1ccc(-c2cn3nc(-c4c[nH]c5ccccc45)sc3n2)cc1" show?
56.5% (inactive)

Bench note: what growth did "CCN1CCN(c2cc(C(=O)Nc3cccc(Nc4ccc5c(OC)cccc5n4)c3)cc(C(F)(F)F)c2)CC1" show?
12.8% (inactive)

Bench note: what growth did "COC(=O)c1c(C(=O)OC)c2ccc3c4ncccc4ccc3n2c1C(=O)c1ccc(C)cc1" show?
94.4% (inactive)
